Assign Cytotoxicity CC50 to each entry below.
# Test system: MT-4 cell
# protocolConditions: non-infected MT-4 cell, 5 days, MTT
Write the value in µg/mL as a bare number.

Name the value of Cytotoxicity CC50 reported for CCCCCCCCCC(=O)OC12C(OC)C(C)C3(O)C(C=C(CO)CC4(O)C(=O)C(C)=CC43)C1C2(C)C (stereo not drawn) when tested on MT-4 cell.
4.6173

Name the value of Cytotoxicity CC50 reported for CCCCCCCCCC(=O)OC12C(OC(C)=O)C(C)C3(O)C(C=C(CO)CC4(O)C(=O)C(C)=CC43)C1C2(C)C (stereo not drawn) [Sample N-6, reference compound] when tested on MT-4 cell.
3.2638

Name the value of Cytotoxicity CC50 reported for CCCCCCCCCC(=O)OC12C(OC(=O)CC)C(C)C3(O)C(C=C(CO)CC4(O)C(=O)C(C)=CC43)C1C2(C)C (stereo not drawn) when tested on MT-4 cell.
125

Name the value of Cytotoxicity CC50 reported for CCCCCCCCCC(=O)OC12C(OC(=O)CCC)C(C)C3(O)C(C=C(CO)CC4(O)C(=O)C(C)=CC43)C1C2(C)C (stereo not drawn) when tested on MT-4 cell.
125

Name the value of Cytotoxicity CC50 reported for CCCCCCCCCC(=O)OC12C(OCC)C(C)C3(O)C(C=C(CO)CC4(O)C(=O)C(C)=CC43)C1C2(C)C (stereo not drawn) when tested on MT-4 cell.
3.3240

Name the value of Cytotoxicity CC50 reported for CCCCCCCCCC(=O)OC12C(OCOC)C(C)C3(O)C(C=C(CO)CC4(O)C(=O)C(C)=CC43)C1C2(C)C (stereo not drawn) when tested on MT-4 cell.
6.9123

---

# Test system: HIV-1 IIIB
# protocolConditions: MT-4 cell, HIV-1 IIIB
quantityMeasured: anti-HIV activity in vitro (in words)

CCCCCCCCCC(=O)OC12C(OC(=O)CC)C(C)C3(O)C(C=C(CO)CC4(O)C(=O)C(C)=CC43)C1C2(C)C (stereo not drawn)	lowered in the activity
CCCCCCCCCC(=O)OC12C(OC)C(C)C3(O)C(C=C(CO)CC4(O)C(=O)C(C)=CC43)C1C2(C)C (stereo not drawn)	weak activity
CCCCCCCCCC(=O)OC12C(OC(=O)CCC)C(C)C3(O)C(C=C(CO)CC4(O)C(=O)C(C)=CC43)C1C2(C)C (stereo not drawn)	lowered in the activity
CCCCCCCCCC(=O)OC12C(OCC)C(C)C3(O)C(C=C(CO)CC4(O)C(=O)C(C)=CC43)C1C2(C)C (stereo not drawn)	weak activity

---

# Tested on: HIV-1 IIIB
# protocolConditions: MT-4 cell, HIV-1 IIIB
quantityMeasured: Safety Index S.I. CC50/EC50

For the compound CCCCCCCCCC(=O)OC12C(OC(=O)CCC)C(C)C3(O)C(C=C(CO)CC4(O)C(=O)C(C)=CC43)C1C2(C)C (stereo not drawn) , report Safety Index S.I. CC50/EC50.
125<

For the compound CCCCCCCCCC(=O)OC12C(OCOC)C(C)C3(O)C(C=C(CO)CC4(O)C(=O)C(C)=CC43)C1C2(C)C (stereo not drawn) , report Safety Index S.I. CC50/EC50.
4066

For the compound CCCCCCCCCC(=O)OC12C(OCC)C(C)C3(O)C(C=C(CO)CC4(O)C(=O)C(C)=CC43)C1C2(C)C (stereo not drawn) , report Safety Index S.I. CC50/EC50.
17

For the compound CCCCCCCCCC(=O)OC12C(OC(=O)CC)C(C)C3(O)C(C=C(CO)CC4(O)C(=O)C(C)=CC43)C1C2(C)C (stereo not drawn) , report Safety Index S.I. CC50/EC50.
125<

For the compound CCCCCCCCCC(=O)OC12C(OC(C)=O)C(C)C3(O)C(C=C(CO)CC4(O)C(=O)C(C)=CC43)C1C2(C)C (stereo not drawn) [Sample N-6, reference compound] , report Safety Index S.I. CC50/EC50.
1920

For the compound CCCCCCCCCC(=O)OC12C(OC)C(C)C3(O)C(C=C(CO)CC4(O)C(=O)C(C)=CC43)C1C2(C)C (stereo not drawn) , report Safety Index S.I. CC50/EC50.
39

The values you see were collected from patent US7662852B2.
